# System: IL-6
# Measurement Protocol: Inhibition of IL-6 in LPS-stimulated THP-1 human monocyte cells (HTRF)
# Assay type: cell-based
# Measurement Conditions: IL-6 inhibition, LPS-stimulated THP-1 cells, HTRF
pEC50: −log10 of the molar value.
Quantity Name: pEC50

Known results for compounds:
{"Given Smiles": "CCC(=O)Nc1cncc(-c2ccc3[nH]nc(-c4cc5c(-c6cccnc6)cccc5[nH]4)c3c2)c1", "Target Under Test": "IL-6", "Value": 6.69}
{"Given Smiles": "CN1CCN(c2cccc3[nH]c(-c4n[nH]c5ccc(-c6cncc(CN7CCC(F)(F)C7)c6)cc45)cc23)CC1", "Target Under Test": "IL-6", "Value": 7.00}
{"Given Smiles": "c1ccc(CNCc2cncc(-c3ccc4[nH]nc(-c5cc6c(-c7ccccn7)cccc6[nH]5)c4c3)c2)cc1", "Target Under Test": "IL-6", "Value": 6.67}
{"Given Smiles": "O=C(Nc1cncc(-c2ccc3[nH]nc(-c4cc5c(-c6ccccn6)cccc5[nH]4)c3c2)c1)C1CCCC1", "Target Under Test": "IL-6", "Value": 6.50}
{"Given Smiles": "CN(C)Cc1cncc(-c2ccc3[nH]nc(-c4cc5c(-c6cc(F)cc(CNS(C)(=O)=O)c6)cccc5[nH]4)c3c2)c1", "Target Under Test": "IL-6", "Value": 5.97}

I: CN(C)CCNc1cc(F)cc(-c2cccc3[nH]c(-c4n[nH]c5ccc(-c6cncc(NC(=O)C7CCCC7)c6)cc45)cc23)c1
II: O=C(Cc1ccccc1)Nc1cncc(-c2ccc3[nH]nc(-c4cc5c(N6CCCCC6)cccc5[nH]4)c3c2)c1
Asked: Would you kindly point out which of I and II has the smaller pEC50 figure? // return label of chosen record
Given back: II
(II: 5.89, I: 7.27)

A: O=C(Nc1cncc(-c2ccc3[nH]nc(-c4cc5c(N6CCCCC6)cccc5[nH]4)c3c2)c1)C1CC1
B: CC(C)(C)C(=O)Nc1cncc(-c2ccc3[nH]nc(-c4cc5c(-c6ccncc6)cccc5[nH]4)c3c2)c1
Asked: In terms of reported pEC50, does A or B have the smaller number? When you have decided, please share the label of that item.
Given back: A
(A: 5.27, B: 6.35)

* * *

# Test system: SW480 colon cancer cells
# Measurement Protocol: Cell viability assay (CellTiter-Blue) in SW480 colon cancer cells
# Assay type: cell-based
# Measurement Conditions: Homo sapiens, 96 h, four days, CellTiter-Blue
Quantity Name: EC50 (µM)

{"Given Smiles": "Fc1ccccc1-c1cccc2[nH]c(-c3n[nH]c4ccc(-c5cncc(CN6CCC(F)(F)C6)c5)cc34)cc12", "Unit Abbreviation": "µM", "Value": 5.24}

a: CCCCC(=O)Nc1cncc(-c2ccc3[nH]nc(-c4cc5c(-c6ccccc6F)cccc5[nH]4)c3c2)c1
b: O=C(Nc1cncc(-c2ccc3[nH]nc(-c4cc5ncccc5[nH]4)c3c2)c1)C1CCC1
c: c1ccc(-c2ccc3[nH]nc(-c4cc5c(-c6ccoc6)cccc5[nH]4)c3c2)nc1
Asked: Sort ascending by EC50. Put the labels in the order asked and list them.
Given back: b, c, a
(b: 0.547 µM, c: 3.1 µM, a: 4.8 µM)

a: CN(C)CCNc1cc(F)cc(-c2cccc3[nH]c(-c4n[nH]c5ccc(-c6cncc(NC(=O)c7ccccc7)c6)cc45)cc23)c1
b: CCNCc1cncc(-c2ccc3[nH]nc(-c4cc5c(-c6ccccn6)cccc5[nH]4)c3c2)c1
Asked: Kindly identify which of a and b has the larger recorded EC50 value. Field: selected label. Fill in the label of the entry you choose.
Given back: b

I: CN(C)CCOc1cncc(-c2ccc3[nH]nc(-c4cc5c(-c6ccoc6)cccc5[nH]4)c3c2)c1
II: CN1CCN(c2cccc3[nH]c(-c4n[nH]c5ccc(-c6cncc(N)c6)cc45)cc23)CC1
III: O=C(Nc1cncc(-c2ccc3[nH]nc(-c4cc5c(-c6ccncc6)cccc5[nH]4)c3c2)c1)C1CC1
IV: CN(C)Cc1cncc(-c2ccc3[nH]nc(-c4cc5c(-c6cccs6)cccc5[nH]4)c3c2)c1
Asked: Order by EC50, ascending. Order the labels as requested and give them as your answer.
Given back: III, IV, I, II
(III: 0.462 µM, IV: 0.841 µM, I: 1.37 µM, II: 2.96 µM)

* * *

# System: IL-6
# Measurement Protocol: Inhibition of IL-6 in LPS-stimulated THP-1 human monocyte cells (HTRF)
# Assay type: cell-based
# Measurement Conditions: IL-6 inhibition, LPS-stimulated THP-1 cells, HTRF
Quantity Name: EC50 (nM)

Solved cases below.
{"Compound": "O=C(Nc1cncc(-c2ccc3[nH]nc(-c4cc5c(-c6cccnc6)cccc5[nH]4)c3c2)c1)C1CCC1 [Compound 105]", "Quantity Name": "EC50", "Unit Abbreviation": "nM", "Value": 174}
{"Compound": "CS(=O)(=O)NCc1cc(F)cc(-c2cccc3[nH]c(-c4n[nH]c5ccc(-c6cncc(NC(=O)C7CC7)c6)cc45)cc23)c1 [Compound 496]", "Quantity Name": "EC50", "Unit Abbreviation": "nM", "Value": 991}

a: O=C(Nc1cncc(-c2ccc3[nH]nc(-c4cc5ncccc5[nH]4)c3c2)c1)C1CCC1 [Compound 525]
b: CN1CCN(c2cccc3[nH]c(-c4n[nH]c5ccc(-c6cncc(NC(=O)C7CCCC7)c6)cc45)cc23)CC1 [Compound 246]
c: CCC(=O)Nc1cncc(-c2ccc3[nH]nc(-c4cc5c(-c6cc(F)cc(CNS(C)(=O)=O)c6)cccc5[nH]4)c3c2)c1 [Compound 477]
Asked: Please rank these compounds by EC50 in descending order. Give me the labels in the order the question wants.
Given back: c, b, a

* * *

# Tested on: SW480 colon cancer cells
# Measurement Protocol: Cell viability assay (CellTiter-Blue) in SW480 colon cancer cells
# Assay type: cell-based
# Measurement Conditions: Homo sapiens, 96 h, four days, CellTiter-Blue
Quantity Name: EC50 (nM)

{"Given Smiles": "Fc1ccccc1-c1cccc2[nH]c(-c3n[nH]c4ccc(-c5cncc(OC6CCNCC6)c5)cc34)cc12", "Target Under Test": "SW480 colon cancer cells", "Value": 1400}

P: CN(C)CCNc1cc(F)cc(-c2cccc3[nH]c(-c4n[nH]c5ccc(-c6cncc(NC(=O)C7CC7)c6)cc45)cc23)c1
Q: CCNCc1cncc(-c2ccc3[nH]nc(-c4cc5ccccc5[nH]4)c3c2)c1
R: Cc1ccncc1-c1ccc2[nH]nc(-c3cc4c(N5CCCCC5)cccc4[nH]3)c2c1
Asked: Rank the items in ascending order with respect to EC50. Write the labels in rank order as requested.
Given back: P, Q, R
(P: 75 nM, Q: 489 nM, R: 1980 nM)

I: CC(C)CC(=O)Nc1cncc(-c2ccc3[nH]nc(-c4cc5c(-c6ccncc6)cccc5[nH]4)c3c2)c1
II: CN1CCN(c2cccc3[nH]c(-c4n[nH]c5ccc(-c6cncc(CN7CCC(F)(F)C7)c6)cc45)cc23)CC1
III: CC(C)C(=O)Nc1cncc(-c2ccc3[nH]nc(-c4cc5c(N6CCN(C)CC6)cccc5[nH]4)c3c2)c1
Asked: Your job: order these 3 records by EC50, ascending. // format: requested-order list of labels
Given back: II, I, III

P: CC(C)(C)C(=O)Nc1cncc(-c2ccc3[nH]nc(-c4cc5c(-c6cccnc6)cccc5[nH]4)c3c2)c1
Q: CC(C)C(=O)Nc1cncc(-c2ccc3[nH]nc(-c4cc5c(-c6cccnc6)cccc5[nH]4)c3c2)c1
R: Cc1ccncc1-c1ccc2[nH]nc(-c3cc4c(-c5cc(F)cc(NCCN(C)C)c5)cccc4[nH]3)c2c1
S: CC(C)C(=O)Nc1cncc(-c2ccc3[nH]nc(-c4cc5c(-c6ccsc6)cccc5[nH]4)c3c2)c1
T: Fc1cccc(-c2cccc3[nH]c(-c4n[nH]c5ccc(-c6cncc(CN7CCC(F)(F)C7)c6)cc45)cc23)c1
Asked: Would you mind ranking these compounds by ascending EC50? Write out the labels following the order that was asked for.
Given back: S, R, P, Q, T

* * *

# Test system: SW480 colon cancer cells
# Measurement Protocol: Cell viability assay (CellTiter-Blue) in SW480 colon cancer cells
# Format: cell-based
# Measurement Conditions: Homo sapiens, 96 h, four days, CellTiter-Blue
pEC50: −log10 of the molar value.
Quantity Name: pEC50

{"Given Smiles": "O=C(CC1CCCCC1)Nc1cncc(-c2ccc3[nH]nc(-c4cc5c(-c6ccsc6)cccc5[nH]4)c3c2)c1", "Value": 5.67}
{"Given Smiles": "FC1(F)CCN(Cc2cncc(-c3ccc4[nH]nc(-c5cc6c(-c7ccoc7)cccc6[nH]5)c4c3)c2)C1", "Value": 6.33}

A: CC(C)CC(=O)Nc1cncc(-c2ccc3[nH]nc(-c4cc5ncccc5[nH]4)c3c2)c1
B: CCCCC(=O)Nc1cncc(-c2ccc3[nH]nc(-c4cc5c(N6CCN(C)CC6)cccc5[nH]4)c3c2)c1
Asked: Field: lower pEC50 | Options: A / B // respond with label for picked entry
Given back: B
